- System: HNDFs (CCD966SK)
- test_name: MTT cytotoxicity of antcins against HNDFs
- Type: cell-based, human
- recorded_conditions: MTT, 72 h, up to 20 μM
metric: cytotoxicity to HNDFs (in words)

molecule	result
C=C(CC[C@@H](C)[C@H]1CC[C@H]2C3=C(C(=O)C[C@]12C)[C@@]1(C)CCC(=O)[C@@H](C)[C@@H]1CC3=O)[C@H](C)C(=O)O	strong cytotoxicity
C=C(CC[C@@H](C)[C@H]1CC[C@H]2C3=C(C(=O)C[C@]12C)[C@@]1(C)CC[C@@H](O)[C@](C)(O)[C@@H]1C[C@@H]3O)C(C)C(=O)O (stereo partly drawn)	strong cytotoxicity
